Give measured half-life at 1 μM for each item. Keep answers brief.
- assay-notes: Assay C: metabolic stability in human liver microsomes (human MST)
- Format: in vitro ADME
- condition-details: pH 7.6; pooled human liver microsomes, 1 μM test compound, 37° C.; read-out: Assay C: Human MST t1/2
// note: answer is a bare numeric in min

[ask] Consider the compound shown here: `CCN(C(=O)c1ccccc1-c1noc(C)n1)[C@@H](C)COc1cnc(C(F)(F)F)cn1` What is its recorded half-life at 1 μM?
[reply] 66

[ask] Would you kindly repeat that for `CCN(C(=O)c1ccc(C(F)(F)F)cc1-n1nccn1)[C@@H](C)COc1cnc(C(F)(F)F)cn1` ?
[reply] 23

[ask] Would you kindly repeat that for `CCN(C(=O)c1ccc(Cl)cc1-n1nccn1)[C@@H](C)COc1cnc(C(F)(F)F)cn1` ?
[reply] 91

[ask] Would you kindly repeat that for `CCN(C(=O)c1ccc(OC)cc1-n1nccn1)[C@@H](C)COc1cnc(C(F)(F)F)cn1` ?
[reply] 71

[ask] Would you kindly repeat that for `CCN(C(=O)c1ccc(C)cc1-n1nccn1)[C@@H](C)COc1cnc(C(F)(F)F)cn1` ?
[reply] 80

[ask] Would you kindly repeat that for `CCN(C(=O)c1ccccc1-c1nc(C)no1)[C@@H](C)COc1cnc(C(F)(F)F)cn1` ?
[reply] 39

[ask] Would you kindly repeat that for `CC[C@@H](CNc1cnc(C(F)(F)F)cn1)N(CC)C(=O)c1nc(C)ccc1-n1nccn1` ?
[reply] 20

###

- target: human Orexin 1 receptor (Homo sapiens)
- Construct: stably expressing the full-length human Orexin 1 receptor; expressed in transfected cells; host or cells: CHO-K1 (CHO-K1/hOx1)
- assay-notes: Assay A: in vitro testing of OX1R potency, OX1R IP1
- Assay type: cell-based
- condition-details: 0.5 nM Orexin A; Table 3; read-out: Assay A OX1R Kb [nM] (Orexin A concentration)
readout: log10(Kb) (log10 of the value in nM)
A value of 2 here means Kb of 100 in nM, since values are log10.

[ask] Observed log10(Kb) on human Orexin 1 receptor (Homo sapiens) for `CCN(C(=O)c1cc(F)cc(F)c1-n1nccn1)[C@@H](C)COc1cnc(C(F)(F)F)cn1` , please.
[reply] 0.48

[ask] Would you kindly repeat that for `CCN(C(=O)c1cc(F)c(F)cc1-n1nccn1)[C@@H](C)COc1cnc(C(F)(F)F)cn1` ?
[reply] 0.74

[ask] Would you kindly repeat that for `CCN(C(=O)c1ccccc1-n1nccn1)[C@@H](C)COc1cnc(C(F)(F)F)cn1` ?
[reply] -0.01

[ask] Would you kindly repeat that for `CCN(C(=O)c1cccc(F)c1-c1ncccn1)[C@@H](C)COc1cnc(C(F)(F)F)cn1` ?
[reply] -0.19

[ask] Would you kindly repeat that for `CCN(C(=O)c1ccc(F)c(F)c1-n1nccn1)[C@@H](C)COc1cnc(C(F)(F)F)cn1` ?
[reply] 0.40

[ask] Would you kindly repeat that for `CCN(C(=O)c1cccc(F)c1-c1nnc(C)o1)[C@@H](C)COc1cnc(C(F)(F)F)cn1` ?
[reply] 1.08

[ask] Would you kindly repeat that for `CCN(C(=O)c1cc(C(F)(F)F)ccc1-n1nccn1)[C@@H](C)COc1cnc(C(F)(F)F)cn1` ?
[reply] 1.11

[ask] Would you kindly repeat that for `CCN(C(=O)c1ccc(F)cc1-c1ncccn1)[C@@H](C)COc1cnc(C(F)(F)F)cn1` ?
[reply] 0.00

[ask] Would you kindly repeat that for `CCN(C(=O)c1ccc(OC)cc1-n1nccn1)[C@@H](C)COc1cnc(C(F)(F)F)cn1` ?
[reply] 0.23

[ask] Would you kindly repeat that for `CCN(C(=O)c1cc(F)ccc1-n1nccn1)[C@@H](C)COc1cnc(C(F)(F)F)cn1` ?
[reply] 0.32

[ask] Would you kindly repeat that for `CCN(C(=O)c1ccccc1-c1ncccn1)[C@@H](C)COc1cnc(C(F)(F)F)cn1` ?
[reply] -0.26

[ask] Would you kindly repeat that for `CCN(C(=O)c1ccccc1-n1cccn1)[C@@H](C)COc1cnc(C(F)(F)F)cn1` ?
[reply] 0.73

[ask] Would you kindly repeat that for `CCN(C(=O)c1ccccc1-c1nc(C)no1)[C@@H](C)COc1cnc(C(F)(F)F)cn1` ?
[reply] 0.59

[ask] Would you kindly repeat that for `CCN(C(=O)c1cccc(F)c1-n1nccn1)[C@@H](C)COc1cnc(C(F)(F)F)cn1` ?
[reply] 0.32

[ask] Would you kindly repeat that for `CCN(C(=O)c1ccc(Cl)cc1-n1nccn1)[C@@H](C)COc1cnc(C(F)(F)F)cn1` ?
[reply] 0.04

[ask] Would you kindly repeat that for `CCN(C(=O)c1ccc(C(F)(F)F)cc1-n1nccn1)[C@@H](C)COc1cnc(C(F)(F)F)cn1` ?
[reply] 1.08

###

- target: human Orexin 1 receptor (Homo sapiens)
- Construct: stably expressing the full-length human Orexin 1 receptor; expressed in transfected cells; host or cells: CHO-K1 (CHO-K1/hOx1)
- Sequence (O43613 1-425): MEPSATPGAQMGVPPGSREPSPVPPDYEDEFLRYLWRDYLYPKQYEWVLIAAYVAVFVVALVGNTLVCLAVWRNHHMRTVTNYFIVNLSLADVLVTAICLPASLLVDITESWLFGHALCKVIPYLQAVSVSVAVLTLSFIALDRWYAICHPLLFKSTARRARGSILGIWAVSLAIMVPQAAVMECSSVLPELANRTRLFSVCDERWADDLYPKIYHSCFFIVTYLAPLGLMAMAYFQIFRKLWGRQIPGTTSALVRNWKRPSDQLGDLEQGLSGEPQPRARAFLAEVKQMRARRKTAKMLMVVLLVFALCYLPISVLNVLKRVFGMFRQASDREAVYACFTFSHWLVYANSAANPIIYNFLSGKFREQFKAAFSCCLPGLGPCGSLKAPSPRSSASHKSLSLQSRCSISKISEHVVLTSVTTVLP
- assay-notes: Assay A: in vitro testing of OX1R potency, OX1R IP1
- Assay type: cell-based
- condition-details: 0.5 nM Orexin A; Table 3; read-out: Assay A OX1R Kb [nM] (Orexin A concentration)
readout: Kb
The answer consists of two parts: a number and, after it, its unit.

[ask] Consider the compound shown here: `CCN(C(=O)c1ccc(C)cc1-c1nnc(C)o1)[C@@H](C)COc1cnc(C(F)(F)F)cn1` What is its recorded Kb?
[reply] 4.6 nM

[ask] Would you kindly repeat that for `CCN(C(=O)c1ccccc1-c1noc(C)n1)[C@@H](C)COc1cnc(C(F)(F)F)cn1` ?
[reply] 2.1 nM

[ask] Would you kindly repeat that for `CCN(C(=O)c1ccc(F)cc1-n1nccn1)[C@@H](C)COc1cnc(C(F)(F)F)cn1` ?
[reply] 4.5 nM

[ask] Would you kindly repeat that for `CCN(C(=O)c1cccc(C)c1-c1nnc(C)o1)[C@@H](C)COc1cnc(C(F)(F)F)cn1` ?
[reply] 1.3 nM

[ask] Would you kindly repeat that for CC[C@@H](CNc1cnc(C(F)(F)F)cn1)N(C)C(=O)c1cc(Cl)ccc1-n1nccn1 [Ex 40 in WO2016/ 034882, reference compound] ?
[reply] 0.73 nM

###

- assay-notes: Assay C: metabolic stability in human liver microsomes (human MST)
- Assay type: in vitro ADME
- condition-details: pH 7.6; pooled human liver microsomes, 1 μM test compound, 37° C.; read-out: Assay C: Human MST t1/2
readout: half-life at 1 μM (h)
// note: answer is a bare numeric in h

[ask] Consider the compound shown here: `CCN(C(=O)c1cccc(C)c1-c1nnc(C)o1)[C@@H](C)COc1cnc(C(F)(F)F)cn1` What is its recorded half-life at 1 μM?
[reply] 1.52

[ask] Would you kindly repeat that for `CCN(C(=O)c1ccc(C)cc1-c1nnc(C)o1)[C@@H](C)COc1cnc(C(F)(F)F)cn1` ?
[reply] 1.48

[ask] Would you kindly repeat that for `CCN(C(=O)c1ccccc1-n1cccn1)[C@@H](C)COc1cnc(C(F)(F)F)cn1` ?
[reply] 0.417

[ask] Would you kindly repeat that for `CCN(C(=O)c1cc(OC)ccc1-n1nccn1)[C@@H](C)COc1cnc(C(F)(F)F)cn1` ?
[reply] 1.22
